Would you kindly list self-cleavage for each of these variants?
B1: OR4K15 (parent)
chain: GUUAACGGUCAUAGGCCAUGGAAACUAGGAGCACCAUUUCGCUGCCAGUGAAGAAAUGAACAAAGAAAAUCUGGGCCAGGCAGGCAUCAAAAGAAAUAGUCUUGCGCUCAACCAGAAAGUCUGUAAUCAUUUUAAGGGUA

variants of: B1; test: self-cleavage, relative activity (ratio to wild type); higher = more cleavage; in vitro, sequencing; the parent is a self-cleaving ribozyme
Answers are plain numbers.

     mutant_id  readout_label  measured_number
0    U43G U49C  self-cleavage             2.01
1   A18U U133A  self-cleavage             1.57
2    U57A A66G  self-cleavage             0.73
3    A62G A78C  self-cleavage             0.37
4  A114U A116G  self-cleavage             0.01

Here are 3 variants. What values of self-cleavage were reported for them?
1. A89G A110G
2. U19C A135U
3. A129U A135U

1: 0.12; 2: 1.5; 3: 0.42
